system: PRKCH; details: Compound Concentration (nM):1000;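 note: KINOMEscan scanMAX binding as percent activity remaining versus control; lower means stronger binding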
What Percent Control was measured for each of the following?
One number for each entry, in %.

[
  {
    "Compound": "COc1cccc(-c2c[nH]c3c(N/N=C/c4ccncc4)ncnc23)c1 [GW814408X]",
    "Assay target": "PRKCH",
    "Units text": "%",
    "Reported": 100
  },
  {
    "Compound": "NS(=O)(=O)c1ccc(N/N=C2\\C(=O)Nc3ccc(C(=O)NCc4ccncc4)cc32)cc1 [GW300657X]",
    "Assay target": "PRKCH",
    "Units text": "%",
    "Reported": 96
  },
  {
    "Compound": "Nc1ncnc2occ(-c3ccc(NC(=O)Nc4cc(C(F)(F)F)ccc4F)cc3)c12 [GW770249X]",
    "Assay target": "PRKCH",
    "Units text": "%",
    "Reported": 100
  },
  {
    "Compound": "Cl.O=S1CCN(Cc2ccc(-c3ccc4ncnc(Nc5ccc(OCc6ccccc6)c(F)c5)c4c3)o2)CC1 [GW576924A]",
    "Assay target": "PRKCH",
    "Units text": "%",
    "Reported": 100
  }
]

Please state, for each entry, its recorded Percent Control.
1. C/C(Nc1ccc(S(N)(=O)=O)cc1)=C1/C(=O)Nc2ccccc21 [GW335962X]
2. Cl.c1ccc(Cc2nc3ccc(Nc4ncnc5ccccc45)cc3[nH]2)cc1 [GR269666A]
3. CCn1c(-c2nonc2N)nc2c(C#CC(C)(C)O)nc(OCCNC)cc21.Cl [GSK949675]
4. O=C(Nc1n[nH]c2nc(-c3ccc(O)cc3)c(Br)cc12)C1CC1 [SB-725317]
5. COc1cc2ncnc(Nc3ccc4c(cnn4Cc4ccccc4)c3)c2cc1OC.Cl [GW282449A]
6. COc1ccc2c(-c3ccnc(Nc4cccc(OC(F)(F)F)c4)n3)cnn2n1 [GW810372X]
7. NS(=O)(=O)c1ccc(Nc2ncc(-c3ccccc3)o2)cc1 [GW572399X]

Response given:
1. 100
2. 100
3. 15
4. 78
5. 100
6. 94
7. 100

Please state, for each entry, its recorded Percent Control.
1. NS(=O)(=O)c1ccc(N/N=C2\C(=O)Nc3ccc(C(=O)NCCc4c[nH]cn4)cc32)cc1 [GW300660X]
2. COc1cc(C)c(N(C)C(=O)CN(C)C)cc1Nc1nc(Nc2cccc(F)c2C(N)=O)c2cc[nH]c2n1 [GSK2219385]
3. CC(C)COC(=O)c1ccc2c(c1)/C(=C/Nc1ccc(S(N)(=O)=O)cc1)C(=O)N2 [GW416981X]
4. COc1cc(C=NNc2ncnc3c2cnn3-c2ccccc2)ccc1O [GW513184X]
5. NS(=O)(=O)c1ccc(N/N=C2\C(=O)Nc3ccc(Cl)cc32)cc1 [GW280670X]
6. Cc1cc(O)cc(C)c1/C=C/c1cncc(C(N)=O)c1 [GW435821X]
7. COC(=O)Nc1nc2ccc(Oc3ccc(NC(=O)Nc4cc(C(F)(F)F)ccc4F)cc3)cc2s1.Cl [GW693917A]
8. Cl.O=C(O[C@H]1CN[C@H](C#Cc2cc3ncnc(Nc4ccc5c(cnn5Cc5ccccc5)c4)c3s2)C1)N1CCOCC1 [GSK200398A]

Response given:
[100, 100, 100, 100, 100, 100, 100, 100]

Please state, for each entry, its recorded Percent Control.
1. C[C@@H](Oc1cc(-n2cnc3ccc(OC4CCN(C)CC4)cc32)sc1C(N)=O)c1ccccc1Cl [GSK579289A]
2. CN(C)CCNC(=O)Nc1ccc(N(C)c2ccnc(Nc3ccc(CS(C)(=O)=O)cc3)n2)cc1.Cl [GW830900A]
3. Cl.O=C(Nc1ccc(Oc2ccc3[nH]c(NC(=O)c4ccccc4)nc3c2)cc1)Nc1cc(C(F)(F)F)ccc1F [GW709042A]
4. O=C1Nc2ccc(C(=O)c3ccco3)cc2C1=Cc1cc(Cl)c(O)c(Cl)c1 [GW406108X]
5. COc1cc2ncn(-c3cc(O[C@H](C)c4ccccc4Cl)c(C(N)=O)s3)c2cc1OC [GSK237701A]
6. COc1cc(N2CCN(C(C)C)CC2)ccc1Nc1nc(Nc2ccc(F)cc2C(=O)NC[C@@H](O)CO)c2cc[nH]c2n1 [GSK1392956A]

Response given:
100
100
100
100
100
100

Challenge: Given COc1ccc2cc(-c3c(-c4ccncc4)nc(-c4ccc(S(C)(=O)=O)cc4C)n3C)ccc2c1 [SB-633825] , respond with its Percent Control.
Response given: 100

* * *

What Percent Control was measured for each of the following?
system: RIOK1; conditions: Compound Concentration (nM):1000
Numbers only, in %.

[
  {
    "Compound": "NS(=O)(=O)c1ccc(N/N=C2\\C(=O)Nc3ccc(Cl)cc32)cc1 [GW280670X]",
    "Units text": "%",
    "Reported": 74
  },
  {
    "Compound": "CCS(=O)(=O)c1ccc(OC)c(Nc2ncc(-c3cccc(OC)c3)o2)c1 [GW580509X]",
    "Units text": "%",
    "Reported": 100
  },
  {
    "Compound": "Cl.O=C(Nc1ccc(Oc2ccc3[nH]c(NC(=O)c4ccco4)nc3c2)cc1)Nc1cc(C(F)(F)F)ccc1F [GW683134A]",
    "Units text": "%",
    "Reported": 64
  },
  {
    "Compound": "NS(=O)(=O)c1ccc(N/N=C2\\C(=O)Nc3ccc(C(=O)NCCc4c[nH]cn4)cc32)cc1 [GW300660X]",
    "Units text": "%",
    "Reported": 74
  },
  {
    "Compound": "CC1=C(C(=O)Nc2ccc3[nH]ncc3c2)C(c2ccc3ccccc3c2)CC(=O)N1 (centres unmarked) [GSK270822A]",
    "Units text": "%",
    "Reported": 74
  }
]

Please state, for each entry, its recorded Percent Control.
1. CC(C)COC(=O)c1ccc2c(c1)/C(=C/Nc1ccc(S(N)(=O)=O)cc1)C(=O)N2 [GW416981X]
2. Cl.O=C(Nc1ccc(Oc2ccc3[nH]c(NC(=O)c4ccccc4)nc3c2)cc1)Nc1cc(C(F)(F)F)ccc1F [GW709042A]
3. CN(C)CCNC(=O)Nc1ccc(N(C)c2ccnc(Nc3ccc(CS(C)(=O)=O)cc3)n2)cc1.Cl [GW830900A]

Response given:
1: 21; 2: 52; 3: 9.5

* * *

What Percent Control was measured for each of the following?
system: MAP3K15; conditions: Compound Concentration (nM):1000
Give bare numbers, in %.

[
  {
    "Molecule": "CCc1ccc(Oc2nccc(-c3c(-c4ccc(F)cc4)ncn3C3CCNCC3)n2)cc1 [SB-242719]",
    "Percent Control (%)": 91
  },
  {
    "Molecule": "Cl.O=C(Nc1ccc(Oc2ccc3[nH]c(NC(=O)c4ccccc4)nc3c2)cc1)Nc1cc(C(F)(F)F)ccc1F [GW709042A]",
    "Percent Control (%)": 100
  },
  {
    "Molecule": "COc1ccc2cc(-c3c(-c4ccncc4)nc(-c4ccc(S(C)(=O)=O)cc4C)n3C)ccc2c1 [SB-633825]",
    "Percent Control (%)": 83
  }
]

Okay, next one:
Challenge: Given COc1cccc(-n2ncc3c(N/N=C/c4ccncc4)ncnc32)c1 [GW784752X] , respond with its Percent Control.
Response given: 97

* * *

system: DMPK2; construct: gene CDC42BPG; conditions: Compound Concentration (nM):1000
Measured metric: Percent Control (%)
Numbers only, in %.

Use these answered entries as a reference point.
[
  {
    "Compound": "NS(=O)(=O)c1ccc(N/N=C2\\C(=O)Nc3ccc(-c4cnco4)cc32)cc1",
    "Assay target": "DMPK2",
    "Percent Control / %": 94
  },
  {
    "Compound": "O=C1Nc2ccc(C(=O)c3ccco3)cc2C1=Cc1cc(Cl)c(O)c(Cl)c1 [GW406108X]",
    "Assay target": "DMPK2",
    "Percent Control / %": 100
  },
  {
    "Compound": "COc1cc2ncnc(Nc3ccc4c(cnn4Cc4ccccc4)c3)c2cc1OC.Cl [GW282449A]",
    "Assay target": "DMPK2",
    "Percent Control / %": 100
  },
  {
    "Compound": "COc1cc2ncn(-c3cc(O[C@H](C)c4ccccc4Cl)c(C(N)=O)s3)c2cc1OC [GSK237701A]",
    "Assay target": "DMPK2",
    "Percent Control / %": 91
  },
  {
    "Compound": "CN(C)CCNC(=O)Nc1ccc(N(C)c2ccnc(Nc3ccc(CS(C)(=O)=O)cc3)n2)cc1.Cl [GW830900A]",
    "Assay target": "DMPK2",
    "Percent Control / %": 91
  }
]

Please state, for each entry, its recorded Percent Control.
1. COc1cc(C)c(N(C)C(=O)CN(C)C)cc1Nc1nc(Nc2cccc(F)c2C(N)=O)c2cc[nH]c2n1
2. O=C(Nc1n[nH]c2nc(-c3ccc(O)cc3)c(Br)cc12)C1CC1
3. CCc1ccc(Oc2nccc(-c3c(-c4ccc(F)cc4)ncn3C3CCNCC3)n2)cc1

Response given:
[99, 100, 2.1]

FYI, the data here is from paper PMC7826789.
